- ASSAYED_TARGET: HCMV polymerase (Human cytomegalovirus)
- Construct: made in house; host or cells: recombinant baculovirus-infected SF-9 cells
- Sequence (P08546 whole entry): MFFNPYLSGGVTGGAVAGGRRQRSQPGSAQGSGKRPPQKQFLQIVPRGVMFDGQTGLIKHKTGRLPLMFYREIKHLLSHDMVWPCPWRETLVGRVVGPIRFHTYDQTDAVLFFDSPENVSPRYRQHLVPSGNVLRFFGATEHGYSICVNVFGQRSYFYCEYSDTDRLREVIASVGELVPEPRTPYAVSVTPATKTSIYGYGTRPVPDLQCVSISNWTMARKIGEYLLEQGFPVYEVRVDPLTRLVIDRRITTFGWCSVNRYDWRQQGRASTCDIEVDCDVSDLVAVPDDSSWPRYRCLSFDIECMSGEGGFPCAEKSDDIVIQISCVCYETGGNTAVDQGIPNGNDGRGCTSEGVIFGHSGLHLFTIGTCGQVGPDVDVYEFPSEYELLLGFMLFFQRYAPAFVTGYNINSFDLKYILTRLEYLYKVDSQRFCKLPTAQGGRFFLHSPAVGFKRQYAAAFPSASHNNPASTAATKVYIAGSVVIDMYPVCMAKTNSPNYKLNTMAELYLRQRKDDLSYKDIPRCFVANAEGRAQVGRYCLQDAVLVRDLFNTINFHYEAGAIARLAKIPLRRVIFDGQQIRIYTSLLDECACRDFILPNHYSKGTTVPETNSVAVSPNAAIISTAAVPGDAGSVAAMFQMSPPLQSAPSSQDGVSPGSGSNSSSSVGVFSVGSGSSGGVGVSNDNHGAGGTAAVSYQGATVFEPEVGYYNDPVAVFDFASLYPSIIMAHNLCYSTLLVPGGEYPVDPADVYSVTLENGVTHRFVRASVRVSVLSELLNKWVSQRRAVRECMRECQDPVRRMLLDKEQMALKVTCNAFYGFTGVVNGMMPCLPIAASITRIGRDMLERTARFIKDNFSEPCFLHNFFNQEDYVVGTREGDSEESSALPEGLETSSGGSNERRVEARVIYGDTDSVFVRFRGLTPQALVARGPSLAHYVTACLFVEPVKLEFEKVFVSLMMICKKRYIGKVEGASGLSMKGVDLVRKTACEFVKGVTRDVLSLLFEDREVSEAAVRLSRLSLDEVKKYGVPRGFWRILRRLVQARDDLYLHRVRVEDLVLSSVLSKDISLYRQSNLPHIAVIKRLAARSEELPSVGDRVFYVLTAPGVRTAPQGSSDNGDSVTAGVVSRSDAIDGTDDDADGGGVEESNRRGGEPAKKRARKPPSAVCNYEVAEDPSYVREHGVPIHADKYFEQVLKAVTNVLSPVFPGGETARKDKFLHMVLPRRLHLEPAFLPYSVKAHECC
- TEST_DETAILS: HCMV polymerase assay (scintillation proximity assay)
- Format: biochemical
- PROTOCOL_CONDITIONS: Table 14; read-out: IC50
RECORDED_METRIC: IC50 (µM)
Entry rule: numbers only, all in µM.

Value lookup for IC50; key = O=C(NCc1ccc(F)c(F)c1)c1ccc2cccnc2c1O
42

Now consider O=C(NCCOc1ccccc1)c1ccc2cccnc2c1O .
29

Then C[C@H](NC(=O)c1ccc2cccnc2c1O)[C@H](O)c1ccccc1 ?
41

Repeat with O=C(NC(CO)C(O)c1ccccc1)c1ccc2cccnc2c1O (centres unmarked)
14

Same read-out for O=C(NCc1cccs1)c1ccc2cccnc2c1O ?
34

----------
- ASSAYED_TARGET: HCMV polymerase (Human cytomegalovirus)
- Construct: made in house; host or cells: recombinant baculovirus-infected SF-9 cells
- TEST_DETAILS: HCMV polymerase assay (scintillation proximity assay)
- Assay type: biochemical
- PROTOCOL_CONDITIONS: Table 10; CMV pol Assay; read-out: IC50
Hi! Just check whether IC50 is below 7 µM. Below gives Satisfied, equal or above gives Not satisfied.

Would you kindly verify if IC50 of O=C(Nc1cccc(C(F)(F)F)c1)c1ccc2cccnc2c1O is strictly less than 7 µM?
Not satisfied

Also, CCc1ccccc1NC(=O)c1ccc2cccnc2c1O please.
Not satisfied

Then what about the molecule O=C(Nc1ccc([N+](=O)[O-])cc1)c1ccc2cccnc2c1O ?
Not satisfied

Now give it for O=C(Nc1ccc(S(=O)(=O)Nc2ccc3cn[nH]c3c2)cc1)c1ccc2cccnc2c1O too.
Satisfied

Also check Cc1noc(NS(=O)(=O)c2ccc(NC(=O)c3ccc4cccnc4c3O)cc2)c1C
Not satisfied

Next: O=C(Nc1ccc(Br)cn1)c1ccc2cccnc2c1O
Not satisfied

Then what about the molecule Cc1ccc(NC(=O)c2ccc3cccnc3c2O)c(C)c1 [drawing 279] ?
Not satisfied

What about O=C(Nc1ccc(Br)cc1)c1ccc2cccnc2c1O ?
Not satisfied

What about this molecule? O=C(Nc1cccc2ccccc12)c1ccc2cccnc2c1O
Satisfied

Repeat with O=C(Nc1ccccc1-c1ccccc1)c1ccc2cccnc2c1O
Satisfied

What do you get for O=C(Nc1ccccc1Br)c1ccc2cccnc2c1O ?
Not satisfied

Try this molecule next: O=C(Nc1ccc(Cl)c(Cl)c1)c1ccc2cccnc2c1O
Not satisfied

Also check O=C(Nc1cccc(I)c1)c1ccc2cccnc2c1O
Satisfied

What about Cc1cc(C)cc(NC(=O)c2ccc3cccnc3c2O)c1 ?
Not satisfied

# repeat for Cc1cccc(NC(=O)c2ccc3cccnc3c2O)c1C
Not satisfied

Entry O=C(Nc1cc(F)cc(F)c1)c1ccc2cccnc2c1O please
Not satisfied

Now consider O=C(Nc1cccc(OCc2ccccc2)c1)c1ccc2cccnc2c1O .
Satisfied

One more molecule: O=C(Nc1cccc(F)c1)c1ccc2cccnc2c1O
Not satisfied

N#Cc1c(F)c(F)c(NC(=O)c2ccc3cccnc3c2O)c(F)c1F , same question.
Not satisfied

Now the molecule Cc1ccc(F)cc1NC(=O)c1ccc2cccnc2c1O [drawing 282]
Satisfied

Please answer likewise for O=C(Nc1cccc(Br)c1)c1ccc2cccnc2c1O
Not satisfied

Similarly, Cc1cc(Cl)ccc1NC(=O)c1ccc2cccnc2c1O ?
Satisfied

Follow-up entry: O=C(Nc1ccc(Sc2ccc([N+](=O)[O-])cc2)cc1)c1ccc2cccnc2c1O
Not satisfied
